(Na^+,K^+-ATPase Inhibition) Rate (%) 10 mM K^+ overview
Tested on: Na^+,K^+-ATPase
methodDescription: Na^+,K^+-ATPase inhibition rate (potassium ion concentration antagonist type), molybdate colorimetry
Assay type: biochemical
assayConditions: 10 mM K^+ in the reaction solution; sample 10^-6 M during reaction; 10 minutes at 25°C; 1 µM
propertyLabel: (Na^+,K^+-ATPase Inhibition) Rate (%) 10 mM K^+

{"columns": ["compound", "measuredResult"],
 "data": [
  ["C[C@]12CCC(=O)C=C1CC[C@@H]1[C@@H]2[C@@H](O)C[C@]2(C=O)[C@@H](C(=O)CO)CC[C@@H]12", -11],
  ["C[C@H](CCC(=O)O)[C@H]1CC[C@H]2[C@@H]3[C@H](O)C[C@@H]4C[C@H](O)CC[C@]4(C)[C@H]3C[C@H](O)[C@]12C", -3],
  ["OC1CCCCC1", 0.4],
  ["C[C@H]1CCCC[C@H]1O (relative stereo) [cis-2-Methylcyclohexanol]", 2],
  ["C[C@]12CCC(=O)C=C1CC[C@@H]1[C@@H]2[C@@H](O)C[C@@]2(C)[C@H]1CC[C@]2(O)C(=O)CO [Hydrocortisone]", -1],
  ["C[C@]12C[C@@H](O)[C@H]3[C@@H](CC[C@]4(O)C[C@@H](O)C[C@@H](O)[C@]34CO)[C@@]1(O)CC[C@@H]2C1=CC(=O)OC1", 6],
  ["C1CC[C@H]2CCC[C@H]2C1 [cis-Hydrindane]", 0.5],
  ["C[C@]12C[C@H](O)[C@H]3[C@@H](CCC4=CC(=O)CC[C@@]43C)[C@@H]1CC[C@@H]2C(=O)CO", 1],
  ["CCCCCCCCCCCCCCCCOC[C@H](COP(=O)([O-])OCC[N+](C)(C)C)OC(C)=O", 1],
  ["O=C1C=CCO1", -5],
  ["CC(=O)[C@H]1CC[C@H]2[C@@H]3CCC4=CC(=O)CC[C@]4(C)[C@H]3CC[C@]12C", 5]
]}

----------
Test system: Na^+,K^+-ATPase
methodDescription: Na^+,K^+-ATPase inhibition rate (potassium ion concentration antagonist type), molybdate colorimetry
Assay type: biochemical
assayConditions: 0.1 mM K^+ in the reaction solution; sample 10^-6 M during reaction; 30 minutes at 25°C; 1 µM
Listing: (Na^+,K^+-ATPase Inhibition) Rate (%) 0.1 mM K^+ of selected molecules
propertyLabel: (Na^+,K^+-ATPase Inhibition) Rate (%) 0.1 mM K^+

{"columns": ["molecule", "unitString", "measuredResult"],
 "data": [
  ["C[C@@H]1OC(O)[C@H](O)[C@H](O)[C@H]1O (some centres unmarked)", "%", -2],
  ["OC1CCCCC1", "%", -3],
  ["C[C@]12CCC(=O)C=C1CC[C@@H]1[C@@H]2[C@@H](O)C[C@@]2(C)[C@H]1CC[C@]2(O)C(=O)CO [Hydrocortisone]", "%", -3],
  ["CCCCC/C=C\\C/C=C\\C/C=C\\C/C=C\\CCCC(=O)O", "%", -5],
  ["CC(=O)[C@H]1CC[C@H]2[C@@H]3CCC4=CC(=O)CC[C@]4(C)[C@H]3CC[C@]12C", "%", 3],
  ["C[C@H]1O[C@@H](O[C@H]2[C@@H](O)C[C@H](O[C@H]3[C@@H](O)C[C@H](O[C@H]4CC[C@@]5(C)[C@H](CC[C@@H]6[C@@H]5CC[C@]5(C)[C@@H](C7=CC(=O)OC7)CC[C@]65O)C4)O[C@@H]3C)O[C@@H]2C)C[C@H](O)[C@@H]1O", "%", 41],
  ["C1CC[C@H]2CCC[C@H]2C1 [cis-Hydrindane]", "%", -1],
  ["C[C@@H]1O[C@@H](O[C@H]2C[C@@H](O)[C@]3(CO)[C@H]4[C@H](O)C[C@]5(C)[C@@H](C6=CC(=O)OC6)CC[C@]5(O)[C@@H]4CC[C@]3(O)C2)[C@H](O)[C@H](O)[C@H]1O", "%", 41],
  ["C[C@]12C[C@@H](O)[C@H]3[C@@H](CC[C@]4(O)C[C@@H](O)C[C@@H](O)[C@]34CO)[C@@]1(O)CC[C@@H]2C1=CC(=O)OC1", "%", 44],
  ["C[C@]12C[C@H](O)[C@H]3[C@@H](CCC4=CC(=O)CC[C@@]43C)[C@@H]1CC[C@@H]2C(=O)CO", "%", -4],
  ["O=C1C=CCO1", "%", 6],
  ["C[C@H](CCC(=O)O)[C@H]1CC[C@H]2[C@@H]3[C@H](O)C[C@@H]4C[C@H](O)CC[C@]4(C)[C@H]3C[C@H](O)[C@]12C", "%", 2],
  ["C[C@]12CCC(=O)C=C1CC[C@@H]1[C@@H]2[C@@H](O)C[C@]2(C=O)[C@@H](C(=O)CO)CC[C@@H]12", "%", 1],
  ["CCCCCCCCCCCCCCCCOC[C@@H](O)COP(=O)([O-])OCC[N+](C)(C)C", "%", -2]
]}

----------
# Lookup of reported (Na^+,K^+-ATPase Inhibition) Rate (%) 10 mM K^+ keyed by entry
Tested on: Na^+,K^+-ATPase
methodDescription: Na^+,K^+-ATPase inhibition rate (potassium ion concentration antagonist type), molybdate colorimetry
Assay type: biochemical
assayConditions: 10 mM K^+ in the reaction solution; sample 10^-6 M during reaction; 10 minutes at 25°C; 1 µM
propertyLabel: (Na^+,K^+-ATPase Inhibition) Rate (%) 10 mM K^+

{"columns": ["compound", "measuredResult"],
 "data": [
  ["CCCCCCCCCCCCCCCCOC[C@@H](O)COP(=O)([O-])OCC[N+](C)(C)C [LisoPAF]", 0.4],
  ["C[C@@H]1O[C@@H](O[C@H]2C[C@@H](O)[C@]3(CO)[C@H]4[C@H](O)C[C@]5(C)[C@@H](C6=CC(=O)OC6)CC[C@]5(O)[C@@H]4CC[C@]3(O)C2)[C@H](O)[C@H](O)[C@H]1O [Ouabain]", 18],
  ["CCCCC/C=C\\C/C=C\\CCCCCCCC(=O)O [Linoleic acid]", -5],
  ["C[C@H]1O[C@@H](O[C@H]2[C@@H](O)C[C@H](O[C@H]3[C@@H](O)C[C@H](O[C@H]4CC[C@@]5(C)[C@H](CC[C@@H]6[C@@H]5CC[C@]5(C)[C@@H](C7=CC(=O)OC7)CC[C@]65O)C4)O[C@@H]3C)O[C@@H]2C)C[C@H](O)[C@@H]1O [Digitoxin]", 11],
  ["C[C@@H]1OC(O)[C@H](O)[C@H](O)[C@H]1O (stereo partly drawn) [L-Rhamnose]", -4],
  ["CCCCC/C=C\\C/C=C\\C/C=C\\C/C=C\\CCCC(=O)O [Arachidonic acid]", -2]
]}

----------
Test system: Na^+,K^+-ATPase
methodDescription: Na^+,K^+-ATPase inhibition rate (potassium ion concentration antagonist type), molybdate colorimetry
Type: biochemical
assayConditions: 0.1 mM K^+ in the reaction solution; sample 10^-6 M during reaction; 30 minutes at 25°C; 1 µM
Property: (Na^+,K^+-ATPase Inhibition) Rate (%) 0.1 mM K^+; scope: individual compounds
propertyLabel: (Na^+,K^+-ATPase Inhibition) Rate (%) 0.1 mM K^+

{"columns": ["compound", "unitString", "measuredResult"],
 "data": [
  ["CCCCCCCCCCCCCCCCOC[C@H](COP(=O)([O-])OCC[N+](C)(C)C)OC(C)=O [PAF]", "%", -3],
  ["C[C@H]1CCCC[C@H]1O (relative stereo) [cis-2-Methylcyclohexanol]", "%", -2],
  ["CCCCC/C=C\\C/C=C\\CCCCCCCC(=O)O [Linoleic acid]", "%", -7]
]}
